endpoint-name: Offscreen_24hr
Number only, no unit.

Ask | Record lookup: for parent strain (SAWy518), what Offscreen_24hr belongs to N#Cc1ccc(Oc2ccc3c(c2)COB3O)cc1 [Crisaborole] ?
Reply | 0.7965

Ask | Record lookup: for parent strain (SAWy518), what Offscreen_24hr belongs to CO[C@H]1C[C@@H]2CC[C@@H](C)[C@@](O)(O2)C(=O)C(=O)N2CCCC[C@H]2C(=O)O[C@H]([C@H](C)C[C@@H]2CC[C@@H](OC(=O)C(C)(CO)CO)[C@H](OC)C2)CC(=O)[C@H](C)/C=C(\C)[C@@H](O)[C@@H](OC)C(=O)[C@H](C)C[C@H](C)/C=C/C=C/C=C/1C [Temsirolimus] ?
Reply | 0.0562

Ask | Record lookup: for parent strain (SAWy518), what Offscreen_24hr belongs to O=C(O)Cc1ccccc1Nc1c(Cl)cccc1Cl [Diclofenac, reference compound] ?
Reply | 0.8825
